molecular target: Monoglyceride lipase (Homo sapiens, UniProt Q99685); assay: Inhibition of human recombinant MAGL expressed in HEK293 cells using 2-AG as substrate; type: cell-based; settings: read-out: IC50
Sequence (Q99685 whole entry): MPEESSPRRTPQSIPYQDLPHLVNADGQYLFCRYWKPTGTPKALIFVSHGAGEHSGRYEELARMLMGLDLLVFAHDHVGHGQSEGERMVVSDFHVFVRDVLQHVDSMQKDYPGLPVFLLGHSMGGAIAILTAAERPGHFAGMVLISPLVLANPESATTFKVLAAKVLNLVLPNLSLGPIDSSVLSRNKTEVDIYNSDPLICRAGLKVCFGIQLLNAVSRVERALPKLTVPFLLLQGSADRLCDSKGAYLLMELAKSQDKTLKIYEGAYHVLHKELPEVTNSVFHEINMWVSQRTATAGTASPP
READOUT_LABEL: log10(IC50) (log10 of the value in nM)
Plainly stated, the numbers are log10 of IC50 given in nM.

Ask | API: value(readout=log10(IC50), system=Monoglyceride lipase (Homo sapiens, UniProt Q99685)) for record `O=C(N1CCN(C(c2ccc(F)cc2)c2ccc(F)cc2)CC1)n1cncn1`
Reply | -0.05

Ask | Param item: `O=C(N1CCC(C(c2ccc3c(c2)OCO3)c2ccc3c(c2)OCO3)CC1)n1cncn1`
Reply | -0.40

Ask | Param item: `O=C(N1CCN(Cc2cccc(Oc3ccccc3)c2)CC1)n1nnc2cccnc21`
Reply | 0.74

Ask | Param item: `O=C(N1CCN(c2ccccc2)CC1)n1nnc2cccnc21`
Reply | 2.44

Ask | Param item: `CCOC(=O)N1CCN(C(=O)n2cncn2)CC1`
Reply | 3.22

Ask | Param item: `O=C(N1CCN(Cc2ccc(Oc3ccccc3)cc2)CC1)n1nnc2ccccc21`
Reply | 1.85

Ask | Param item: `O=C(N1CCN(Cc2cccc(Oc3ccccc3)c2)CC1)n1cncn1`
Reply | -0.22

Ask | Param item: `O=C(N1CCN(c2ccccc2)CC1)n1cncn1`
Reply | 2.12

Ask | Param item: `CCOC(=O)N1CCN(C(=O)n2nnc3cccnc32)CC1`
Reply | 3.28

Ask | Param item: `O=C(Oc1ccc([N+](=O)[O-])cc1)N1CCN(C(c2ccc(F)cc2)c2ccc(F)cc2)CC1`
Reply | 2.54

Ask | Param item: `O=C(N1CCN(Cc2ccc(Oc3ccccc3)cc2)CC1)n1ccnc1`
Reply | 2.82

Ask | Param item: `O=C(OC(C(F)(F)F)C(F)(F)F)N1CCN(Cc2cccc(Oc3ccccc3)c2)CC1`
Reply | 1.87

Ask | Param item: `O=C(Oc1ccc([N+](=O)[O-])cc1)N1CCC(C(c2ccc3c(c2)OCO3)c2ccc3c(c2)OCO3)CC1`
Reply | 1.62

Ask | Param item: `O=C(N1CCN(C(c2ccccc2)c2ccccc2)CC1)n1nnc2cccnc21`
Reply | 0.23

Ask | Param item: `O=C(Oc1ccc([N+](=O)[O-])cc1)N1CCN(C(c2ccccc2)c2ccccc2)CC1`
Reply | 2.41

Ask | Param item: `O=C(N1CCN(Cc2cccc(Oc3ccccc3)c2)CC1)n1nnc2ccccc21`
Reply | 0.89

Ask | Param item: `O=C(N1CCN(Cc2cccc(Oc3ccccc3)c2)CC1)n1ccnc1`
Reply | 3.45

Ask | Param item: `O=C(Oc1ccc([N+](=O)[O-])cc1)N1CCN(Cc2ccc(Oc3ccccc3)cc2)CC1`
Reply | 3.04

Ask | Param item: `O=C(N1CCN(C(c2ccccc2)c2ccccc2)CC1)n1cncn1`
Reply | 0.11
